MEASURED_TARGET: recombinant soluble homotrimeric HA, A/chicken/Vietnam/NCVD-016/08 (H5N1) (influenza A virus A/chicken/Vietnam/NCVD-016/2008 (H5N1))
ASSAY_SUMMARY: microarray, trimeric HA, transfection supernatant
CONDITION_LABEL: remark: other sources report otherwise
REPORTED_ENDPOINT: Trimeric HA Binding RLU (RLU)
Write down the numeric answer in RLU and omit the unit.

Study these solved cases before continuing.
TCN-557 (5081_A04) (antibody, V domains shown) VH: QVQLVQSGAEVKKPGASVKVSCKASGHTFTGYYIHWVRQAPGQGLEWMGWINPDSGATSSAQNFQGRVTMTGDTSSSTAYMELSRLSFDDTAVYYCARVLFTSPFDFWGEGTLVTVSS VL: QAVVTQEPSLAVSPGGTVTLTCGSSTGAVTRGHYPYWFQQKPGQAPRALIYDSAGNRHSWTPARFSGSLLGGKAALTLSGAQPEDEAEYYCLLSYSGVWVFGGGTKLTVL: 23300
TCN-535 (5246_P19) (antibody, V domains shown) VH: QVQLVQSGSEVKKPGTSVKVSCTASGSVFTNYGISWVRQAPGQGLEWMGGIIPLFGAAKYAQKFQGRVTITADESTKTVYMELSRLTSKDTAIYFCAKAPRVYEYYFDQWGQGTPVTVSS VL: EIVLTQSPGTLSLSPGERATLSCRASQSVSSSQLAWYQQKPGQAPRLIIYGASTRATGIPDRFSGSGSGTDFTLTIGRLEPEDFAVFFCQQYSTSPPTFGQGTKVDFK: 20900

In: Given the binder TCN-539 (5056_A08) (antibody, V domains shown) VH: QVQLVESGGGVVQPGRSLRLSCAASEITFITYAMHWVRQAPGKGLEWVALISDDGSNKFYADSVKGRFTISRDNSKNTLYLQMNSLRAEDTAAYYCAREGVYFDSGTYRGYFDYWGQETLVTVSS VL: EIVLTQSPATLSLSPGERATLSCRASQSVSSYLAWYQQKPGQAPRLLIYDASNRATGIPARFSGSGSGTDFTLTISSLEPEDFAVYYCQQRSHWPPITFGQGTRLEIK , what is its reported Trimeric HA Binding RLU?
Out: 3500
